The entries below are paired with their reported pIC50.
target: GABA-A receptor; anion channel; assay: In vitro inhibitory concentration of compound against benzodiazepine receptor from rat cerebral cortex using [3H]- flunitrazepam was evaluated
In simple prose, pIC50 is minus the logarithm base ten of a concentration in moles per litre.

Use these answered entries as a reference point.
molecular_string=O=C1CN=C(c2ccccc2F)c2ccc3ccccc3c2N1 measurement_target="GABA-A receptor; anion channel" recorded_endpoint=pIC50 number=6.92
molecular_string=CN1C(=O)CN=C(c2ccccc2F)c2ccc3ccccc3c21 measurement_target="GABA-A receptor; anion channel" recorded_endpoint=pIC50 number=6.59
molecular_string=CN1C(=O)CN=C(c2ccccc2F)c2cc3ccccc3cc21 measurement_target="GABA-A receptor; anion channel" recorded_endpoint=pIC50 number=7.26
molecular_string=C=Cc1ccc2c(c1)C(c1ccccc1)=NCC(=O)N2 measurement_target="GABA-A receptor; anion channel" recorded_endpoint=pIC50 number=7.62
molecular_string=O=C1CN=C(c2ccccc2)c2c(Cl)cccc2N1 measurement_target="GABA-A receptor; anion channel" recorded_endpoint=pIC50 number=6.49

Lab entry: GABA-A receptor; anion channel assay, compound CCOC(=O)c1ncc2[nH]c3ccc(OCc4ccccc4)cc3c2c1COC , pIC50 = 8.30

Lab entry: GABA-A receptor; anion channel assay, compound Cc1cc2c(cc1Cl)NC(=O)CN=C2c1ccccc1F , pIC50 = 7.85

Lab entry: GABA-A receptor; anion channel assay, compound O=C1CN=C(c2ccccc2F)c2cc(Cl)c(Cl)cc2N1 , pIC50 = 8.44

Lab entry: GABA-A receptor; anion channel assay, compound CN1C(=O)CN=C(c2ccccc2)c2cc(Cl)c(Cl)cc21 , pIC50 = 7.40

Lab entry: GABA-A receptor; anion channel assay, compound CN1C(=O)CN=C(c2ccccc2F)c2c(Cl)cccc21 , pIC50 = 6.82

Lab entry: GABA-A receptor; anion channel assay, compound O=C1CN=C(c2ccccc2)c2cc3ccccc3cc2N1 , pIC50 = 6.40

----------
target: GABA-A receptor; anion channel (Mus musculus) (UniProt Q8BHJ7+P26048+Q8QZW7+P50571+Q9R0Y8+P22723+A2AMW3+P62812+Q9JLF1+P26049+P22933+Q9D6F4+P63080+P27681+P16305); assay: In vivo activity of compound was evaluated against benzodiazepine receptor in mice; format: functional, organism-based
recorded-endpoint: Activity

Use these answered entries as a reference point.
molecular_string=C=Cc1ccc2c(c1)C(c1ccccc1)=NCC(=O)N2 result="Weak activity"
molecular_string=O=C1CN=C(c2ccccc2)c2c(Cl)cccc2N1 result=0
molecular_string=CN1C(=O)CN=C(c2ccccc2)c2cc(Cl)c(Cl)cc21 result="Weak activity"
molecular_string=CN1C(=O)CN=C(c2ccccc2F)c2c(Cl)cccc21 result=0
molecular_string=Cc1cc2c(cc1Cl)NC(=O)CN=C2c1ccccc1F result=0

--- query ---
CN1C(=O)CN=C(c2ccccc2)c2cc(Cl)ccc21 has a reported Activity of 1.39
